The measured values listed here are drawn from patent US20220041606A1.

target: human mAChR M1 (Homo sapiens); construct: host or cells: CHO-K1 cells (ATCC), stably transfected using Lipofectamine2000; experiment: mAChR M1 cell-based functional assay (calcium mobilization), PAM activity: increase in the EC20 acetylcholine response; details: CHO-K1 cells expressing hM1; potentiation of EC20 acetylcholine response
Sequence (P11229 whole entry): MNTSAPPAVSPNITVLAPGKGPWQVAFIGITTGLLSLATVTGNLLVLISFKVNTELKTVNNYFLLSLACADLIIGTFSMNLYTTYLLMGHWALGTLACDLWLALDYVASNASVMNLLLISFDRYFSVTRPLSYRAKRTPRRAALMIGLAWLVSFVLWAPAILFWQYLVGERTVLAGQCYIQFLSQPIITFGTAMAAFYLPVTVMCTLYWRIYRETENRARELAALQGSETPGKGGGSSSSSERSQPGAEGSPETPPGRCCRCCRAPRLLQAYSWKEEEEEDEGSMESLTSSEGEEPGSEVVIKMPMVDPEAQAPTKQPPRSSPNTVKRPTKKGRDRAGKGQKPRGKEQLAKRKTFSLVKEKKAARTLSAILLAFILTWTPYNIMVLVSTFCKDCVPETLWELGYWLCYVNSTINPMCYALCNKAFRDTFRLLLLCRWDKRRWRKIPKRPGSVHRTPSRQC
TEST_READOUT: Emax (%)

Some compounds with recorded Emax:
Cn1ccc(-c2ccc(Cn3cc(C(=O)N[C@H]4CCC[C@@H]4O)c4nccn4c3=O)c(F)c2)n1 [Compound B3] :: 67
Cn1cc(-c2ccc(Cn3cc(C(=O)N[C@H]4CCCCC[C@@H]4O)c4ncccc4c3=O)cc2)cn1 [Compound A87] :: 44
Cc1cc(-c2cc(F)c(Cn3cc(C(=O)N[C@H]4CCC[C@@H]4O)c4ncccc4c3=O)c(F)c2)ccn1 [Compound A38] :: 25

a. Cc1cn2c(=O)n(Cc3ccc(-n4cccn4)cc3)cc(C(=O)N[C@H]3CCOC[C@@H]3O)c2n1 [Compound B27]
b. Cn1nccc1-c1cc(F)c(Cn2cc(C(=O)N[C@H]3CCOC[C@@H]3O)c3nccn3c2=O)c(F)c1 [Compound B36]
Lookup: Which of these two has the smaller recorded Emax: a or b ? Record your answer as the label of the chosen record.
Found: a
(a: 30%, b: 78%)
